Tested on: Triticum aestivum
Experiment summary: Herbicidal activity against Triticum aestivum (wheat) at 5000 g/ha after 2 weeks
Format: ADME, organism-based
Settings: in vivo, 336 h
Each entry below carries its reported Activity.

[
  {
    "Mol": "CCCCCNC(=O)c1nc(C)c(C)nc1C(=O)Nc1cc(Cl)ccc1C",
    "Activity": "< 10%"
  },
  {
    "Mol": "CCCCCNC(=O)c1nc(C)c(C)nc1C(=O)Nc1cc(F)ccc1C",
    "Activity": "< 10%"
  },
  {
    "Mol": "CNC(=O)c1nc(C)c(C)nc1C(=O)Nc1cc(F)ccc1C",
    "Activity": "< 10%"
  }
]
